# target-system: Par3 PDZ3 (rat, UniProt Q9Z340 582-685)
# Sequence (Q9Z340 582-685): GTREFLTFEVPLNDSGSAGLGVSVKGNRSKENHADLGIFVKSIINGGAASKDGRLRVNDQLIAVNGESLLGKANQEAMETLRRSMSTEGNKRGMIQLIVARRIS
# experimental-protocol: FP; 10% 1,6-hexanediol
Ends that are not written are not given here.
outcome-measure: Kd (µM)

binder: LEEDGTIITL (also: FITC label, position not given here) [FITC-labeled Par6β PBM peptide]
recorded-number: 9.7
